System: CoC1/DDP
measurement-protocol: antiproliferative activity (OmniScreen)
Format: cell-based
measurement-conditions: Ovary, 72 hours, read-out: Absolute IC50
From the text: To determine associations of genomic alterations with compound 1′ sensitivity, 458 were mapped to a cell line present in DepMap (21Q3). Of the 458 cell lines mapped, there were 440 with available mutation data in DepMap. Cell line mutation and copy number data were accessed and for mutations, the data were filtered to include variants with a “damaging” or “other non-conserving” annotation only, in order to select variants which are more likely to be functionally important. […]
reported-metric: IC50 (nM)

1. COc1cc(F)ccc1-c1cc(Nc2cc(CS(C)(=N)=O)ccn2)ncc1F (single isomer, unassigned; (+)) = 72

----------
System: MIAPaCa2
measurement-protocol: in vitro cytotoxicity, MTT assay
Type: cell-based
measurement-conditions: Homo sapiens, MIA PaCa-2; MIAPaCa2, Pancreatic, KRAS pG12C
reported-metric: IC50 (nM)

1) COc1cc(F)ccc1-c1cc(Nc2cc(CS(C)(=N)=O)ccn2)ncc1F (single isomer, unassigned; (+)) = 128

----------
Test system: HCT116
measurement-protocol: in vitro cytotoxicity, MTT assay
Assay type: cell-based
measurement-conditions: Homo sapiens, HCT-116; HCT116, Colorectal, KRAS p.G13D
pIC50: −log10 of the molar value.
reported-metric: pIC50

1. COc1cc(F)ccc1-c1cc(Nc2cc(CS(C)(=N)=O)ccn2)ncc1F (single isomer, unassigned; (+)) [Compound 1′] = 7.34

----------
Test system: panel of 500 tumor cell lines
measurement-protocol: antiproliferative activity, panel of 500 tumor cell lines (OmniScreen)
Assay type: cell-based
measurement-conditions: panel of 500 tumor cell lines, 72 hours of treatment; read-out: mean IC50
reported-metric: IC50

1. COc1cc(F)ccc1-c1cc(Nc2cc(CS(C)(=N)=O)ccn2)ncc1F (single isomer, unassigned; (+)) [Compound 1′] = 113 nM

----------
Test system: SU.86.86
measurement-protocol: antiproliferative activity (OmniScreen)
Type: cell-based
measurement-conditions: Homo sapiens; SU.86.86, Pancreas, 72 hours; read-out: Absolute IC50
reported-metric: IC50 (nM)

1) COc1cc(F)ccc1-c1cc(Nc2cc(CS(C)(=N)=O)ccn2)ncc1F (single isomer, unassigned; (+)) = 82

Origin of measurements: patent US20240325366A1
